molecular target: ROCK2 (Homo sapiens (Human))
Sequence (O75116 1-553): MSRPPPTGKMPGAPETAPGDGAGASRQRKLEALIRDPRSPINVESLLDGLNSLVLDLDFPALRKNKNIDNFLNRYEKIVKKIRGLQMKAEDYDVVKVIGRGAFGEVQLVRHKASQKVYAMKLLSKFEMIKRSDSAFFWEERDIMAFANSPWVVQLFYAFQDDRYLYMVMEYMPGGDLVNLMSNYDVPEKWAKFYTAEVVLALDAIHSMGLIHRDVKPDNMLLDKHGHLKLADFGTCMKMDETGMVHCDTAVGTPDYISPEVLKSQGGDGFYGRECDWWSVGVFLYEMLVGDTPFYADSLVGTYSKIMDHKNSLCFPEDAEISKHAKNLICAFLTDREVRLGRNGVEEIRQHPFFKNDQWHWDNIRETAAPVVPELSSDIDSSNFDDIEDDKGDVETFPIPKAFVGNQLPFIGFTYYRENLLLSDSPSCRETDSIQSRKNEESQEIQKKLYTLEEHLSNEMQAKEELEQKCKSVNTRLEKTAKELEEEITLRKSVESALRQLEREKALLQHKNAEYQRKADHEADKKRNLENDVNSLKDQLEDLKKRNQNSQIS
Property label: IC50 (nM)

- CC(C)NC(=O)c1cc2ccc(-c3nc(Nc4ccc(-c5cn[nH]c5)cc4)c4sccc4n3)cc2[nH]1: 109
- O=C(Nc1ccncc1)c1cc2ccc(-c3nccc(Nc4ccc(-c5cn[nH]c5)cc4)n3)cc2[nH]1: 104
- O=C(Nc1nncs1)c1cc2ccc(-c3nccc(Nc4ccc5[nH]ncc5c4)n3)cc2[nH]1: 134
- CC(C)NC(=O)c1cc2ccc(-c3nc(Nc4ccc5[nH]ncc5c4)c4ccccc4n3)cc2[nH]1: 145

* * *

pIC50: −log10 of the molar value.
# pIC50 per entry for ROCK2 (Homo sapiens (Human), UniProt O75116)
Property label: pIC50

• CN1CCC(NC(=O)c2cc3ccc(-c4nccc(Nc5ccc6[nH]ncc6c5)n4)cc3s2)CC1 = 6.80

I: CC(C)NC(=O)c1cc2ccc(-c3nc(Nc4ccc5[nH]ncc5c4)c4sccc4n3)cc2s1
II: CC(C)NC(=O)c1cc2ccc(-c3nccc(Nc4ccc5[nH]ncc5c4)n3)cc2o1
Exercise: Could you kindly indicate whether I or II has the higher pIC50 value? In your reply, give the label of the chosen option.
Solution: I

* * *

target: ROCK2 (Homo sapiens (Human))
Property label: IC50 (µM)

I: CC(C)NC(=O)c1cc2ccc(-c3nccc(Nc4ccc5[nH]ncc5c4)n3)cc2[nH]1
II: O=C(Nc1ccncc1)c1cc2ccc(-c3nccc(Nc4ccc(-c5cn[nH]c5)cc4)n3)cc2s1
Exercise: Could you kindly indicate whether I or II has the higher IC50 value? In your reply, give the label of the chosen option.
Solution: II
(II: 0.258 µM, I: 0.022 µM)

P: O=C(c1cc2ccc(-c3nccc(Nc4ccc(-c5cn[nH]c5)cc4)n3)cc2[nH]1)N1CCC1
Q: CN1CCC(n2cc(NC(=O)c3cc4ccc(-c5nccc(Nc6ccc7[nH]ncc7c6)n5)cc4[nH]3)cn2)CC1
Exercise: Could you kindly indicate whether P or Q has the higher IC50 value? In your reply, give the label of the chosen option.
Solution: P
(P: 0.474 µM, Q: 0.087 µM)

* * *

target: UniProt:O75116
Property label: IC50 (nM)

Completed entries (count: 5):
* CC(C)NC(=O)c1ccc2ccc(-c3nccc(Nc4ccc5[nH]ncc5c4)n3)cc2n1 | 472
* O=C(NC1CCC1)c1cc2ccc(-c3nc(Nc4ccc(-c5cn[nH]c5)cc4)c4sccc4n3)cc2[nH]1 | 138
* CN(C)C(=O)N1Cc2ccc(-c3nccc(Nc4ccc(-c5cn[nH]c5)cc4)n3)cc2C1 | 260
* C[C@H](CN)NC(=O)c1cc2ccc(-c3nccc(Nc4ccc(-c5cn[nH]c5)cc4)n3)cc2[nH]1 | 147
* O=C(NC1CC1)c1cc2ccc(-c3nccc(Nc4ccc5[nH]ncc5c4)n3)cc2s1 | 100

A: O=C(Nc1cnc2[nH]ccc2c1)c1cc2ccc(-c3nccc(Nc4ccc5[nH]ncc5c4)n3)cc2[nH]1
B: C[C@@H](CN)NC(=O)c1cc2ccc(-c3nccc(Nc4ccc(-c5cn[nH]c5)cc4)n3)cc2[nH]1
C: CN(C)C(=O)c1cc2ccc(-c3nccc(Nc4ccc(-c5cn[nH]c5)cc4)n3)cc2[nH]1
Exercise: Please list the entries, largest IC50 first. Write out the labels following the order that was asked for.
Solution: C, B, A
